B1: Chromodomain-helicase-DNA-binding protein 3, residues 374 to 426; numbered along this chain, Q12873 (parent)
chain: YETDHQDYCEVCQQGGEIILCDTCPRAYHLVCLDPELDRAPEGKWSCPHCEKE

variants of: B1; experiment: abundance fitness (aPCA) (normalised: wild type 0, dead -1); higher = more abundant; growth selection in yeast, the domain comes from the species named; settings: Homo sapiens
measuredParameter: abundance fitness
// return just the number, without any unit appended

mutationLabel	measuredParameter	quantitativeReadout
H5N	abundance fitness	0.229
T3K	abundance fitness	0.363
D38G	abundance fitness	-0.142
P25D	abundance fitness	-0.482
Q6R	abundance fitness	-0.139
C21K	abundance fitness	-0.846
C12V	abundance fitness	-0.78
L30Q	abundance fitness	-0.189
R26D	abundance fitness	-0.159
P35V	abundance fitness	0.029

Entry under review: "Y1I" . Reported abundance fitness? 0.557

What abundance fitness value was documented for this variant, "Y1C" ? 0.258

Requested read-out: abundance fitness. Entry: "C12I" -0.947
